Test system: Alopecurus myosuroides
experiment.description: Pre-emergence herbicidal activity, glasshouse pot test
Format: in vivo
measurement.parameters: pre-emergence spray, rate 1000 g/ha, evaluated after 13 days, scale 0-5
Measured ALOMY damage score, application pre-emergence of individual entries
quantity.name: ALOMY damage score, application pre-emergence

# compound, val
measured = [
    ("CC1=C(Cl)C(=O)N(c2nccc(C(F)(F)F)c2F)C1O (stereo not drawn) [AF5]", 4),
    ("CCCC1=C(Cl)C(=O)N(c2cc(C(C)(C)C#N)ncn2)C1O (stereo not drawn) [CF22]", 2),
    ("COc1cc(N2C(=O)C(Cl)=C(C)C2O)ncn1 (stereo not drawn) [CF21]", 2),
    ("CC1=C(Cl)C(=O)N(c2ncc(C(F)(F)F)cc2F)C1O (stereo not drawn) [AF63]", 0),
    ("COC1=C(C)C(O)N(c2cc3c(cn2)CCCC3)C1=O (stereo not drawn) [AI7]", 2),
    ("COC1=C(C)C(O)N(c2cc(C(C)(C)C)c(Cl)nn2)C1=O (stereo not drawn) [BI32]", 4),
]
